I'd be grateful if you could share measured IC50 for these entries.
- System: HTT
- assay-explanation: Splicing RT-qPCR assay, HTT mRNA canonical junction (CJ) and alternative junction (AJ)
- Assay type: cell-based, human
- test-context: Homo sapiens, RT-qPCR panel, canonical junction mRNA; compound concentration having 50% response in CJ decrease; read-out: HTT IC50 (decrease in CJ mRNA levels)
- Procedure: Compounds described herein were used to modulate RNA transcript abundance in cells. The expression of a target mRNA was measured by detecting the formation of an exon-exon junction in the canonical transcript (CJ). A compound mediated exon-inclusion event was detected by observing an increase in formation of a new junction with an alternative exon (AJ). Real-time qPCR assays were used to detect these splicing switches and interrogate the potency of various compounds towards different target genes. […]

Consider the following illustrative entries.
c1nc2c(-c3cn[nH]c3)ccc(-c3ccc(N4CCNCC4)nn3)c2s1 [Compound 185]	> 10000 nM
CCN(c1ccc(-c2ccc(-c3cn[nH]c3)c3ncsc23)nn1)[C@@H]1C[C@H]2CCC[C@@H](C1)N2 [Compound 228]	< 100 nM
[2H]C([2H])([2H])N(c1ccc(-c2ccc(-c3cn[nH]c3)c3cn[nH]c23)nn1)C1CC(C)(C)NC(C)(C)C1 [Compound 292]	100 to 1000 nM
Cn1cc(-c2ccc(-c3ccc(O[C@@H]4C[C@H]5CC[C@@H](C4)N5)nn3)c3[nH]ncc23)nn1 [Compound 323]	100 to 1000 nM
c1nc2c(-c3cn[nH]c3)ccc(-c3ccc(N4CCCC5(CNC5)C4)nn3)c2s1 [Compound 189]	> 10000 nM

# batch size: 6; output IC50 per entry
1. CN(c1ccc(-c2ccc(-c3cnn(CC4CC4)n3)c3cn[nH]c23)nn1)[C@@H]1C[C@H]2CC[C@@H](C1)N2 [Compound 318]
2. [2H]C([2H])([2H])N(c1ccc(-c2ccc(-c3cn[nH]c3)c3ncsc23)nn1)[C@@H]1C[C@H]2CC[C@@H](C1)N2 [Compound 210]
3. Cn1ncc(-c2ccc(-c3ccc(N[C@@H]4C[C@H]5CC[C@@H](C4)N5)nn3)c3[nH]ncc23)n1 [Compound 322]
4. c1nc2c(-c3cn[nH]c3)ccc(-c3ccc(N(C4CC4)C4C[C@H]5CC[C@@H](C4)N5)nn3)c2s1 (some centres unmarked) [Compound 360]
5. CN(c1ncc(-c2ccc(-c3cn[nH]c3)c3ncsc23)nn1)[C@@H]1C[C@]2(C)CC[C@](C)(C1)N2 [Compound 425]
6. CC1(C)CC(Nc2ccc(-c3ccc(-c4cn[nH]c4)c4ncsc34)nn2)CC(C)(C)N1 [Compound 186]

1: 1000 to 10000 nM; 2: < 100 nM; 3: < 100 nM; 4: < 100 nM; 5: 100 to 1000 nM; 6: < 100 nM

* * *

- System: HTT
- assay-explanation: Splicing RT-qPCR assay, HTT mRNA canonical junction (CJ) and alternative junction (AJ)
- Type: cell-based, human
- test-context: Homo sapiens, RT-qPCR panel, canonical junction mRNA; compound concentration having 50% response in CJ decrease; read-out: HTT IC50 (decrease in CJ mRNA levels)
measurement-type: IC50

// below: answered compounds
CN(c1ncc(-c2ccc(-n3cncn3)c3[nH]ncc23)nn1)[C@@H]1C[C@H]2CCC[C@@H](C1)N2	< 100 nM
CN(c1ncc(-c2ccc(-c3cn[nH]c3)c3ncsc23)nn1)[C@@H]1C[C@H]2CC[C@@H](C1)N2	< 100 nM
COc1cc(-c2ccc(-c3ccc(N(C)C4CC(C)(C)NC(C)(C)C4)nn3)c3scnc23)ccn1	100 to 1000 nM
CCNC1CCN(c2ccc(-c3ccc(-c4cn[nH]c4)c4ncsc34)nn2)CC1	> 10000 nM
CN(c1ccc(-c2ccc(-n3cccn3)c3[nH]ncc23)nn1)C1CC(C)(C)NC(C)(C)C1	100 to 1000 nM

List IC50 for every entry below, keeping the order given.
1. CCc1n[nH]c2c(-c3ccc(N(C)[C@@H]4C[C@H]5CC[C@@H](C4)N5)nn3)ccc(-c3cnn(C)n3)c12
2. CN(c1ccc(-c2ccc(-n3cccn3)c3cn[nH]c23)nn1)[C@@H]1C[C@H]2CC[C@@H](C1)N2

["> 10000 nM", "< 100 nM"]

Provide the reported IC50 of each entry below, same order.
1. Fc1cc(-c2ccc(N[C@@H]3C[C@H]4CC[C@@H](C3)N4)nn2)c2scnc2c1-c1cn[nH]c1
2. c1nc2c(-c3cn[nH]c3)ccc(-c3ccc(N4CCC(NC5CC5)C4)nn3)c2s1 (stereo not shown)
3. CC1(C)CN(c2ncc(-c3ccc(-c4cn[nH]c4)c4ncsc34)nn2)CC(C)(C)N1

1. < 100 nM
2. > 10000 nM
3. 1000 to 10000 nM

# per-item lookup of IC50; items listed below
1. CNC1CCN(c2ncc(-c3ccc(-c4cn[nH]c4)c4ncsc34)nn2)C1 (stereo not shown)
2. CN(c1ccc(-c2ccc(-c3cnn(C4CC4)n3)c3cn[nH]c23)nn1)[C@@H]1C[C@H]2CC[C@@H](C1)N2
3. CN(c1ccc(-c2ccc(-c3cn[nH]c3)c3ncsc23)nn1)[C@H]1C[C@]2(C)CC[C@](C)(C1)N2
4. CN(c1ccc(-c2ccc(-c3cn[nH]c3)c3cn[nH]c23)nn1)C1CC(C)(C)NC(C)(C)C1
5. CC1(C)CC(Oc2ccc(-c3ccc(-c4cn[nH]c4)c4ncsc34)nn2)CC(C)(C)N1
6. CN(c1ccc(-c2ccc(-c3cn[nH]c3)c3ccsc23)nn1)C1CC(C)(C)NC(C)(C)C1

1: 100 to 1000 nM; 2: 1000 to 10000 nM; 3: < 100 nM; 4: 100 to 1000 nM; 5: > 10000 nM; 6: 1000 to 10000 nM

Dear reader, for each entry below, please note its IC50.
1. CCN(c1ccc(-c2ccc(-c3cn[nH]c3)c3ncsc23)nn1)C1CCNCC1
2. c1nc2c(-c3cn[nH]c3)ccc(-c3ccc(N4CCCC5(CCNC5)C4)nn3)c2s1 (stereo not shown)
3. c1n[nH]cc1-c1ccc(-c2ccc(O[C@@H]3C[C@H]4CC[C@@H](C3)N4)nn2)c2cn[nH]c12

> 10000 nM
> 10000 nM
> 10000 nM

Required: IC50, one value per compound below.
1. c1n[nH]cc1-c1ccc(-c2ccc(N3CCC4(CC3)CNC4)nn2)c2[nH]ncc12
2. c1n[nH]cc1-c1ccc(-c2ccc(O[C@@H]3C[C@H]4CC[C@@H](C3)N4)nn2)c2[nH]ncc12

1: > 10000 nM; 2: 100 to 1000 nM

The recorded IC50 for `CN(c1ccc(-c2ccc(-c3cnnc(O)c3)c3scnc23)nn1)C1CC(C)(C)NC(C)(C)C1` is > 10000 nM
